Numbers sourced from PubChem BioAssay AID624129.

biological target: Apelin receptor (Homo sapiens) (UniProt P35414); assay: potency against CXCR6 with APJ panel – cell-based, beta-arrestin, DiscoveRx, uHTS hits, dose response (AID 624129); conditions: CXCR6 beta-arrestin (DiscoveRx) antagonist cell assay, APJ, run 2, dose range 1
pIC50: −log10 of the molar value.
Assay Metric: pIC50

[
  {
    "Molecule": "COC(=O)c1ccc2c(c1)C(C)(C)C(/C=C/c1ccc(OC)c(OC)c1OC)=[N+]2C",
    "Study System": "Apelin receptor (Homo sapiens) (UniProt P35414)",
    "Assay Metric": "pIC50",
    "Qualifier": "=",
    "Value Measured": 4.85
  },
  {
    "Molecule": "Cc1cccc(C(=O)Nc2ccc(C(=O)/C=C/c3cccnc3)cc2)c1",
    "Study System": "Apelin receptor (Homo sapiens) (UniProt P35414)",
    "Assay Metric": "pIC50",
    "Qualifier": "=",
    "Value Measured": 5.01
  },
  {
    "Molecule": "O=S(=O)(Nc1cccc2cccnc12)c1ccccc1",
    "Study System": "Apelin receptor (Homo sapiens) (UniProt P35414)",
    "Assay Metric": "pIC50",
    "Qualifier": "=",
    "Value Measured": 4.97
  },
  {
    "Molecule": "Fc1ccc(NC(=S)Nc2nccs2)cc1",
    "Study System": "Apelin receptor (Homo sapiens) (UniProt P35414)",
    "Assay Metric": "pIC50",
    "Qualifier": "=",
    "Value Measured": 4.85
  },
  {
    "Molecule": "CN(CCO)c1cc(Sc2nc3ccccc3s2)c2nonc2c1[N+](=O)[O-]",
    "Study System": "Apelin receptor (Homo sapiens) (UniProt P35414)",
    "Assay Metric": "pIC50",
    "Qualifier": "=",
    "Value Measured": 5.11
  },
  {
    "Molecule": "CCC(=O)OCOc1ccc(/C=C2/CCC(CN(C)C)C2=O)cc1 (stereo not drawn)",
    "Study System": "Apelin receptor (Homo sapiens) (UniProt P35414)",
    "Assay Metric": "pIC50",
    "Qualifier": "=",
    "Value Measured": 4.82
  },
  {
    "Molecule": "CC(Oc1ccc(Br)cc1)C(=O)Nc1nc(-c2ccccn2)cs1 (stereo not drawn)",
    "Study System": "Apelin receptor (Homo sapiens) (UniProt P35414)",
    "Assay Metric": "pIC50",
    "Qualifier": "=",
    "Value Measured": 5.25
  },
  {
    "Molecule": "COCc1cc(=O)[nH]c(Nc2nc3ccc(C)cc3o2)n1",
    "Study System": "Apelin receptor (Homo sapiens) (UniProt P35414)",
    "Assay Metric": "pIC50",
    "Qualifier": "<",
    "Value Measured": 4.10
  },
  {
    "Molecule": "CC(=O)Nc1ccc(NCC(=O)c2ccccc2)cc1",
    "Study System": "Apelin receptor (Homo sapiens) (UniProt P35414)",
    "Assay Metric": "pIC50",
    "Qualifier": "=",
    "Value Measured": 4.60
  },
  {
    "Molecule": "CC(C)(C)C(=O)NC(=S)NNC(=O)c1sc2ccccc2c1Cl",
    "Study System": "Apelin receptor (Homo sapiens) (UniProt P35414)",
    "Assay Metric": "pIC50",
    "Qualifier": "=",
    "Value Measured": 4.82
  },
  {
    "Molecule": "COc1ccc(C(=O)/C=C/C(=O)N(CC(=O)NC2CCCCC2)CC2CCCO2)c(O)c1 (stereo not drawn)",
    "Study System": "Apelin receptor (Homo sapiens) (UniProt P35414)",
    "Assay Metric": "pIC50",
    "Qualifier": "<",
    "Value Measured": 4.10
  },
  {
    "Molecule": "Cc1ccc(C(=O)CNc2ccc(F)cc2)cc1",
    "Study System": "Apelin receptor (Homo sapiens) (UniProt P35414)",
    "Assay Metric": "pIC50",
    "Qualifier": "=",
    "Value Measured": 6.63
  },
  {
    "Molecule": "N#CC(C#N)=C1C=CC=CN1/C(=C\\c1ccco1)C(=O)c1ccc(Br)cc1",
    "Study System": "Apelin receptor (Homo sapiens) (UniProt P35414)",
    "Assay Metric": "pIC50",
    "Qualifier": "<",
    "Value Measured": 4.10
  },
  {
    "Molecule": "O=[N+]([O-])c1ccc(Sc2cccc3cccnc23)c([N+](=O)[O-])c1",
    "Study System": "Apelin receptor (Homo sapiens) (UniProt P35414)",
    "Assay Metric": "pIC50",
    "Qualifier": "=",
    "Value Measured": 5.37
  },
  {
    "Molecule": "Fc1ccc(Sc2nc(-c3ccccc3)nnc2C(F)(F)F)cc1",
    "Study System": "Apelin receptor (Homo sapiens) (UniProt P35414)",
    "Assay Metric": "pIC50",
    "Qualifier": "=",
    "Value Measured": 4.24
  },
  {
    "Molecule": "O=C1C=CC(=O)N1Cc1ccccc1",
    "Study System": "Apelin receptor (Homo sapiens) (UniProt P35414)",
    "Assay Metric": "pIC50",
    "Qualifier": "=",
    "Value Measured": 4.94
  },
  {
    "Molecule": "CNC(=O)c1nnsc1S(=O)(=O)c1ccc(Cl)cc1",
    "Study System": "Apelin receptor (Homo sapiens) (UniProt P35414)",
    "Assay Metric": "pIC50",
    "Qualifier": "=",
    "Value Measured": 4.79
  },
  {
    "Molecule": "CCC(=O)OCCNc1cc(Sc2nc3ccccc3[nH]2)c2nonc2c1[N+](=O)[O-]",
    "Study System": "Apelin receptor (Homo sapiens) (UniProt P35414)",
    "Assay Metric": "pIC50",
    "Qualifier": "=",
    "Value Measured": 5.18
  },
  {
    "Molecule": "C=C1C(=O)C23CCC4C(C)(C(=O)OC)CCCC4(C)C2CCC1(O)C3 (stereo not drawn)",
    "Study System": "Apelin receptor (Homo sapiens) (UniProt P35414)",
    "Assay Metric": "pIC50",
    "Qualifier": "=",
    "Value Measured": 5.12
  },
  {
    "Molecule": "C/C(=N\\NC(=O)COc1ccccc1-c1ccccc1)c1ccccn1",
    "Study System": "Apelin receptor (Homo sapiens) (UniProt P35414)",
    "Assay Metric": "pIC50",
    "Qualifier": "=",
    "Value Measured": 5.59
  },
  {
    "Molecule": "CN(C)c1nc(=NCc2ccco2)ss1",
    "Study System": "Apelin receptor (Homo sapiens) (UniProt P35414)",
    "Assay Metric": "pIC50",
    "Qualifier": "=",
    "Value Measured": 4.74
  },
  {
    "Molecule": "COc1ccc(Nc2ccc([N+](=O)[O-])c3nonc23)c(OC)c1",
    "Study System": "Apelin receptor (Homo sapiens) (UniProt P35414)",
    "Assay Metric": "pIC50",
    "Qualifier": "<",
    "Value Measured": 4.10
  },
  {
    "Molecule": "C=CCn1nc([N+](=O)[O-])nc1Sc1cccc2cccnc12",
    "Study System": "Apelin receptor (Homo sapiens) (UniProt P35414)",
    "Assay Metric": "pIC50",
    "Qualifier": "=",
    "Value Measured": 4.44
  }
]
